Test: NCI Yeast Anticancer Drug Screen. Data for the bub3 strain (AID 167)
Settings: S. cerevisiae bub3 mutant strain, at 5.0 µM (retest, dose inferred, filed as 0.5), active compounds read high
About 79,000 compounds went through this panel and 15% of them were active in at least one assay; those are over-represented in the sample as a whole.
Measure name: growth inhibition (%)

{"columns": ["Molecule", "Unit of measure", "Readout value"],
 "data": [
  ["O=C1CSC(c2c[nH]c3ccccc23)N1c1cccc(Cl)c1 (stereo not drawn)", "%", 16],
  ["Nc1ccc2ccc3cccc4ccc1c2c34", "%", -2],
  ["CC(C)(C)SC(=O)C1(C)OC1c1ccc([N+](=O)[O-])cc1 (stereo not drawn)", "%", 0],
  ["CSc1nc(NC2OC(CO)C(O)C(O)C2O)c(Cl)c(=O)[nH]1 (stereo not drawn)", "%", -1],
  ["NC(CCCCCC(N)C(=O)O)C(=O)O (stereo not drawn)", "%", -67],
  ["COc1ccc(C2COc3c(ccc(O)c3O)C2)cc1 (stereo not drawn)", "%", 11],
  ["CCCCCCCC/C=C\\CCCCCCCC(=O)NCC[N+](C)(C)C", "%", 83],
  ["CCCN1CCN(c2ccc([N+](=O)[O-])c3no[n+]([O-])c23)CC1", "%", 58],
  ["OCCN1COc2cc3c(cc2C1)OCN(CCO)C3", "%", 1],
  ["CC1CCC2(CC1)OCC(C)O2 (stereo not drawn)", "%", 27],
  ["Cc1cnc(C#N)c(C#N)n1", "%", -1],
  ["Cc1c2ncccc2cc2oc3ccccc3c(=O)c12", "%", 15],
  ["O=C1CC(c2ccccc2)C(c2ccccc2)CO1 (stereo not drawn)", "%", 56],
  ["CCCCCCCCCCCCNCc1ccc(O)c(OC)c1", "%", 96],
  ["N#CC(CCCCl)(c1ccccc1)c1ccccc1", "%", -1],
  ["c1ccc(-c2ccc(-c3cnc(-c4ccc(-c5ccccc5)cc4)o3)cc2)cc1", "%", 8],
  ["CN(C)CC(CN(C)C)C(=O)C1CCCCC1", "%", 7],
  ["O=C1OC2(c3ccc(O)cc3Oc3cc(O)ccc32)c2c1c(-c1ccccc1)c(-c1ccccc1)c(-c1ccccc1)c2-c1ccccc1", "%", -1],
  ["O=C(CSc1nnc(-c2ccc(N=Cc3ccc(Cl)cc3)cc2)o1)Nc1ccc(Cl)cc1Cl", "%", 12],
  ["Clc1ncccc1-n1cccc1/C=N\\N=C/c1cccn1-c1cccnc1Cl", "%", 6],
  ["O=c1ccc2ccc(Cl)cc2[nH]1", "%", 4],
  ["COc1ccc(CCCCI)cc1", "%", 0],
  ["S=C(Nc1ccccc1)NC1CCCCCCCCC1", "%", -5],
  ["CCC(c1ccc(O)cc1)C(CC)c1ccc(OCC(N)=O)cc1 (stereo not drawn)", "%", -15],
  ["CC(C)C1=CC2=CC(=O)C3C(C)(C)CCCC3(C)C2=C(O)C1=O (stereo not drawn)", "%", 49],
  ["Cc1ccc(C(=O)C(CN(C)C)CN(C)C)cc1C", "%", 20],
  ["Cc1ccc([N+](=O)[O-])c2c(NCCCN(C)C)c3ccccc3nc12", "%", 35],
  ["O=[N+]([O-])c1c[nH]c2ncnc(SCc3ccccc3)c12", "%", 97],
  ["C1=C(CC2=C[P+](c3ccccc3)(c3ccccc3)C=C(c3ccccc3)O2)OC(c2ccccc2)=C[P+]1(c1ccccc1)c1ccccc1", "%", 32],
  ["NCCSC1(O)C(=O)c2ccccc2C1=O", "%", -3],
  ["CC1(c2ccccc2)Nc2ccccc2C1=Nc1ccccc1 (stereo not drawn)", "%", -7],
  ["O=S(=O)(ON=C1C=CC(=NOS(=O)(=O)c2ccccc2)C=C1)c1ccccc1", "%", 14],
  ["CC12CCC(O)CC1=CCC1C2CCC2(C)/C(=C\\C#N)CCC12 (stereo not drawn)", "%", 2],
  ["O=C1CCC(c2ccccc2)=NN1c1nc2ccccc2s1", "%", -6],
  ["CCC(C)(O)Cc1cnccn1 (stereo not drawn)", "%", 0],
  ["COc1ccc(OCC(O)CN2CCN(c3cccc(Cl)c3)CC2)cc1 (stereo not drawn)", "%", -4],
  ["C=C(CN(C)C)C(=O)c1ccccc1", "%", -20],
  ["Cc1ccnc2ccc3ccccc3c12", "%", -67],
  ["Oc1cc2ccccc2c2c1ccc1ccccc12", "%", -55],
  ["COc1ccc2c(Cc3ccc(O)cc3)cncc2c1O", "%", -5],
  ["COC(C(=O)C1=C2Oc3c4c(cc(O)c3C(=O)C2C2=C(CCCC2)C1=O)OC(C)(C)C=C4)C(C)CCC=C(C)C (stereo not drawn)", "%", 4],
  ["Oc1ccc(O)c(C2CCCCC2)c1", "%", 51],
  ["C[C@]12CC[C@H](O)C[C@@H]1CC[C@@H]1[C@@H]2CC[C@]2(C)[C@@H](c3cc(C(F)(F)F)n[nH]3)CC[C@@H]12", "%", -3],
  ["O=C(NC1CCN(Cc2ccccc2)CC1)c1ccccc1I", "%", 59],
  ["CN(C)c1nc(N(C)C)sc(=O)n1", "%", -10],
  ["CN(C)CC1CCC2=C(C1=O)C(c1ccc(Cl)c(Cl)c1)C1=C(CCC(CN(C)C)C1=O)O2 (stereo not drawn)", "%", -5],
  ["C[N+](C)([O-])CCC=C1c2ccccc2CCc2ccccc21", "%", 3],
  ["Oc1ccc(O)c2c1N=NC21c2ccccc2Oc2ccccc21", "%", 5]
]}
